Entries and their TGI
# Tested on: OVCAR-5 ovarian
# Assay notes: NCI tumour cell line growth inhibition, 48 h
Where a SMILES comes first, the peptide text is derived from it. [ ]: non-standard residue; d: D form. pGlu = O=C1CC[CH](C(=O)O)N1
Parameter: TGI

{"columns": ["Compound", "Parameter", "Measurement"],
 "data": [
  ["O=C1[C@H]2ON(c3ccccc3)C(c3ccccc3F)[C@H]2C(=O)N1c1ccc(Cc2ccc(N3C(=O)[C@@H]4ON(c5ccccc5)C(c5ccccc5F)[C@@H]4C3=O)cc2)cc1 (stereo partly drawn)", "TGI", "> 100 µM"],
  ["Cc1ccc(C(=O)/C(=C\\c2ccc([N+](=O)[O-])cc2)S(=O)Cc2ccc(F)cc2)cc1 (stereo not drawn)", "TGI", "3.93 µM"],
  ["COc1ccc(S(=O)(=O)Nc2ccc(-c3csc(N4C(=O)/C(=C/c5ccccc5)N=C4c4ccccc4)n3)cc2)cc1Cl", "TGI", "> 100 µM"],
  ["COc1ccc(N2C(N)=C(C#N)C(C#N)(C#N)C2c2cccc([N+](=O)[O-])c2)cc1 (stereo not drawn)", "TGI", "34.5 µM"],
  ["CC(NC(=O)C(Cc1cnc[nH]1)NC(=O)C1CCC(=O)N1)C(N)=O (stereo not drawn) ([pGlu]-His-Ala-NH2; configuration not given here)", "TGI", "> 100 µM"],
  ["N#Cc1ccc(Nc2cnc3ccc(N)cc3n2)cc1", "TGI", "> 100 µM"],
  ["Cc1ccc(C(=O)N2c3ccccc3N(C)n3cccc3C2CC(=O)O)cc1 (stereo not drawn)", "TGI", "> 100 µM"],
  ["Cn1c(/C=C(\\C#N)c2cccc(C(F)(F)F)c2)nc2c(N3CCOCC3)nc(Cl)nc21", "TGI", "2.87 µM"],
  ["Clc1ccc(C(c2ccc(Cl)cc2)N2CCNCC2)cc1", "TGI", "18.3 µM"],
  ["CCOC(=O)C1=CC(C)(C(=O)OCC)Nc2c(nc(SC)n(C)c2=O)N1 (stereo not drawn)", "TGI", "> 10 µM"],
  ["CC(=O)NC(C)c1ccc(N=NN2CCCC2)cc1 (stereo not drawn)", "TGI", "> 100 µM"],
  ["c1cncc(-c2nc3ccccc3s2)c1", "TGI", "> 100 µM"],
  ["COC(=O)[C@@]12OC[C@]34C([C@@H](O)C1O)[C@@]1(C)CC(=O)C(O)=C(C)C1C[C@H]3OC(=O)[C@H](OC(=O)/C=C(/c1ccccc1)C(F)(F)F)[C@H]42 (stereo partly drawn)", "TGI", "> 25 µM"],
  ["O=C1c2ccccc2-c2nnc(-c3ccc(Cl)cc3)cc21", "TGI", "> 10 µM"],
  ["CCCCC1(N=[N+]=[N-])C(=O)C2C=CC=C3c4ccccc4N(C1=O)C32 (stereo not drawn)", "TGI", "> 31.6 µM"],
  ["COc1ccc2c(c1)CCc1[nH]nc(-c3cc(OC)c(OC)c(OC)c3)c1-2", "TGI", "38.8 µM"],
  ["CCOc1ccccc1N1C(=O)C(=O)C(c2nc3ccccc3o2)/C(=N\\N)C1=O (stereo not drawn)", "TGI", "> 100 µM"],
  ["CN(C(=O)C12C3(C(=O)C(C)(C)C)C4C5(C#N)C3C1(C(=O)C(C)(C)C)C5C42C(=O)C(C)(C)C)C(C)(C)C (stereo not drawn)", "TGI", "> 50 µM"],
  ["CC1(C)CCC[C@]2(C)c3cc(O)ccc3CC[C@@H]12", "TGI", "27.9 µM"],
  ["NC(CC(=O)Nc1ccc(Cl)cc1)=Nc1ccccc1", "TGI", "> 100 µM"],
  ["CCCOC(=O)N[C@H]1CCc2cc(OC)c(OC)c(OC)c2-c2ccc(SC)c(=O)cc21", "TGI", "> 100 µM"],
  ["NNC(=O)CCC(NS(=O)(=O)c1ccc(Cl)cc1)C(=O)NN (stereo not drawn)", "TGI", "> 100 µM"],
  ["CCC/C(Cl)=N\\OC(=O)Nc1ccc(F)c([N+](=O)[O-])c1", "TGI", "44.4 µM"],
  ["O=C1OC(c2ccc(Cl)cc2)(c2ccc(Cl)cc2)c2c1ccc1ccccc21", "TGI", "> 100 µM"],
  ["C[C@]12CC[C@H](O)CC1=CC[C@@H]1[C@@H]2CC[C@]2(C)c3nc(Cl)ccc3C[C@@H]12", "TGI", "> 100 µM"],
  ["S=c1nc2sc3c(c2c(Nc2ccc(Br)cc2)[nH]1)CCN(N1CCc2c(sc4nc(=S)[nH]c(Nc5ccc(Br)cc5)c24)C1)C3", "TGI", "> 50 µM"],
  ["O=C(O)C1C(=O)Oc2c(cccc2[N+](=O)[O-])C1O (stereo not drawn)", "TGI", "> 100 µM"],
  ["COP(=O)(OC)c1ccc(NCc2cc(O)ccc2O)cc1", "TGI", "> 60.1 µM"]
]}
